Target: Cathepsin S (Homo sapiens)
Construct: purchased Biovision K149-100
Sequence (P25774 115-331): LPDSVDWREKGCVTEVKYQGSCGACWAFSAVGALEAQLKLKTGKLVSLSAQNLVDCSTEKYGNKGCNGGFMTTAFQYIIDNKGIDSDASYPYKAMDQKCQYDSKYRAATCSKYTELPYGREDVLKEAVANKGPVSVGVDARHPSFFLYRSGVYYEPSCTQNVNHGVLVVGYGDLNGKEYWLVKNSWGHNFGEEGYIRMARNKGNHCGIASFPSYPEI
Test: IC50 determination against Cathepsin S (Biovision kit K149-100)
Format: biochemical
Details: CTSS; average of Exp-1 and Exp-2; read-out: Ave of IC50
endpoint label: IC50 (µM)

Below, each entry is followed by its recorded IC50 result.
CCOC(=O)[C@H]1O[C@@H]1C(=O)N[C@@H](CCSC)C(=O)NCCCCc1ccccc1 [Compound 40]: 1.17
CCOC(=O)[C@H]1O[C@@H]1C(=O)N[C@@H](CCSC)C(=O)NCCc1cccc(F)c1 [Compound 34]: 1.63
CCCNC(=O)[C@H]1O[C@@H]1C(=O)N[C@H](C(=O)N1CCC[C@H]1C(=O)O)[C@@H](C)CC [zxy-60, CA-074, reference compound]: 3.37

[A] CCCCCCNC(=O)[C@H](CCSC)NC(=O)[C@H]1O[C@@H]1C(=O)OCC [Compound 5]
[B] CCOC(=O)[C@H]1O[C@@H]1C(=O)N[C@@H](CCSC)C(=O)N1CCC(c2ccccc2)CC1 [Compound 13]
[C] CCOC(=O)[C@H]1O[C@@H]1C(=O)N[C@@H](CC(C)C)C(=O)NCCC(C)C [zxy-37, E64d, reference compound]
[D] CCOC(=O)[C@H]1O[C@@H]1C(=O)N[C@@H](CCSC)C(=O)NC(CC)CC [Compound 39]
[E] CCOC(=O)[C@H]1O[C@@H]1C(=O)N[C@@H](CCSC)C(=O)NCCCc1ccccc1 [Compound 8]
**Query** Please give the order of these compounds when sorted by IC50, largest value leading. In your reply, arrange the labels in the requested order.
**Result** E, D, A, B, C
(E: 10 µM, D: 6.93 µM, A: 4.11 µM, B: 1.43 µM, C: 0.662 µM)
